measurement_protocol: Luminescence Cell-Based Dose Confirmation HTS to Identify Activators of 5'UTR Stem-Loop Driven Alpha-Synuclein mRNA Translation in H4 Neuroglioblastoma Cells. [Related pubchem assays: 1829 (Project Summary), 1814 (Primary HTS)]
Type: functional
Calls of active or inactive are those of the source.
measurement_type: EC50

Reference set, count: 3
O=C(Cc1ccc(O)cc1)NC1CCCCCC1 = 47.4 µM (active)
CC(/C=N/Nc1n[nH]c2c3ccccc3nc-2n1)=C\c1ccco1 = 11 µM (active)
CCN(CC)c1ccc(C(=O)OCC(=O)c2ccco2)cc1 = 14.1 µM (active)

Pending compound:
Query: Return value of EC50 for input `Cc1csc(Nc2ccccc2)[n+]1-c1ccccc1` , no commentary.
Response: > 120 µM (not active)

* * *

Attribute: AC50
target_or_system: UniProtKB P08684
assay_conditions: Potency

Reference set, count: 2
CC1Cc2c(-c3ccccc3)nc3c(c2CO1)CN(CCOc1ccccc1)CC3 (stereo not drawn) = 3.98 µM (inconclusive)
N#Cc1ccc(C23CC4(C2)[C@H](CN(CC2CCCCC2)[C@@H]4c2ccccc2)C3c2ccc(C(F)(F)F)cc2)cc1 (stereo partly drawn) = 15.8 µM (inconclusive)

Query: Return value of AC50 for input O=C(CCCCCCCCCCCCC1CCCC1)Nc1ccc(S(=O)(=O)c2ccc(NC(=O)CCCCCCCCCCCCC3CCCC3)cc2)cc1 [CHAULMOSULFONE] , no commentary.
Response: 31.6 µM (inconclusive)

* * *

Attribute: IC50
target_or_system: Alkaline phosphatase, tissue-nonspecific isozyme (Homo sapiens, UniProt P05186)
Sequence (P05186 whole entry): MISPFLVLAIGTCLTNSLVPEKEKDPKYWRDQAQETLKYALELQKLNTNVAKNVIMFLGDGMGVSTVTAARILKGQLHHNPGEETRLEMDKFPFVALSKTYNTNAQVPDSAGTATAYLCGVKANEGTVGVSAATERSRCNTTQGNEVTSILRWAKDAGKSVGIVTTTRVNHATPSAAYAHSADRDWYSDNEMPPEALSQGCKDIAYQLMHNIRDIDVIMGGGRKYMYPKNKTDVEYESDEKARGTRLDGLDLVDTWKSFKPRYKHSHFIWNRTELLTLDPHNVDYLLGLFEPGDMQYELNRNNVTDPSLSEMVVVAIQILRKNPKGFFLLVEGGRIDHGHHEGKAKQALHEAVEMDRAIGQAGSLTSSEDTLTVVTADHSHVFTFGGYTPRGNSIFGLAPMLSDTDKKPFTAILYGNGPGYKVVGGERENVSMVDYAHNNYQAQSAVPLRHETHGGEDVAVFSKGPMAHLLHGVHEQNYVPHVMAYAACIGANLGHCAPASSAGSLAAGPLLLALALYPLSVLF
measurement_protocol: human TNAP enzyme inhibitors, SAR follow-up, biochemical, luminescent, dose response (AID 1056)
Activity calls are given as the source filed them.

Query: Return value of IC50 for input `c1cncc(Cn2ccnc2)c1` , no commentary.
Response: > 100 µM (inactive)

* * *

target_or_system: Corticotropin-releasing factor receptor 2/Corticotropin-releasing factor-binding protein (Homo sapiens, UniProt P24387+Q13324)
Sequence (Q13324 whole entry): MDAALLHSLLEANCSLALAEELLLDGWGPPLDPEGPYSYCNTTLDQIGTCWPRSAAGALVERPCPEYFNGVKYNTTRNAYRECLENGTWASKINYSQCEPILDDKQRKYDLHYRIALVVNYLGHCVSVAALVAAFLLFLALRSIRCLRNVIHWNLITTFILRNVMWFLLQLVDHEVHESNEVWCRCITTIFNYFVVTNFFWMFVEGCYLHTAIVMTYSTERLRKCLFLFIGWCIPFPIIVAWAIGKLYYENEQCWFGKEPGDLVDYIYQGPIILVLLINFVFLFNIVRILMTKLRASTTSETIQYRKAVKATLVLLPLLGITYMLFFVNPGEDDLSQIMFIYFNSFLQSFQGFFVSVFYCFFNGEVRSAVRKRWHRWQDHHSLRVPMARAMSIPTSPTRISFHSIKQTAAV
Sequence (P24387 whole entry): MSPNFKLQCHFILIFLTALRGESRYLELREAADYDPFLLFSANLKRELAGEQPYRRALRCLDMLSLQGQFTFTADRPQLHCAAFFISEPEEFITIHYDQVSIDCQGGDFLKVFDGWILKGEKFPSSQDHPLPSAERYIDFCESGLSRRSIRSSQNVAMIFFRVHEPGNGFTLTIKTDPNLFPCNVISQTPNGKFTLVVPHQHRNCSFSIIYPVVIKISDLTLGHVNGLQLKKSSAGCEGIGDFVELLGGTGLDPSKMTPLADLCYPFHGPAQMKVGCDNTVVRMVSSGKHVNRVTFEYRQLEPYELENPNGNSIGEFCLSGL
measurement_protocol: Dose Response confirmation of uHTS hits for small molecule antagonists of the CRF-binding protein and CRF-R2 receptor complex.
Format: functional
assay_conditions: read-out: IC50_Mean
Active and inactive are the calls of the source.
Hi there, use one of these labels in your reply, thanks! active, inactive

CC(=O)c1cccc(Nc2cc(C)nc3c(C)cccc23)c1 = inactive
CC(=O)c1ccccc1NC(=O)Cn1c(=O)cnc2ccccc21 = inactive
CCN(c1cccc(C)c1)c1nc2ccsc2c(=O)s1 = inactive
O=C(COC(=O)COc1ccc(Cl)cc1Br)NCc1cccs1 = inactive
FC(F)(F)c1ccccc1-c1nc(-c2ccncc2)no1 = inactive
COc1ccc(C2Nc3ccccc3C(=O)N2c2ccccc2)cc1CSc1ccccn1 (stereo not drawn) = active
COc1ccc(N(C(=O)c2ccco2)C(C(=O)NC2CCCC2)c2ccc(N3CCOCC3)cc2)c(OC)c1 (stereo not drawn) = inactive
COc1ccc2[nH]c3c(c2c1)CCN1C(=O)C(CC(=O)NCCc2ccccn2)C[C@H](C(=O)N(C(C)C)C(C)C)[C@@]31C (stereo partly drawn) = inactive
O=C(/C=C/c1ccccc1[N+](=O)[O-])N1CCOCC1 = inactive
O=C(COC(=O)c1ccncc1)Nc1cc(S(=O)(=O)N2CCOCC2)ccc1Cl = inactive

Query: Called result for `CCCSc1nnc(NC(C)=O)[nH]1`
Response: inactive

Query: Called result for `CCCCCC(=O)NNC(=O)c1ccc(F)cc1`
Response: inactive

Query: Called result for `Nc1nnc(SCc2ccc(F)cc2Cl)s1`
Response: active

Where these numbers come from: ChEMBL document CHEMBL1201862
